Please provide measured abundance fitness for the entries that follow.
B1: Protein S100-G, residues 1 to 79; numbered along this chain, P02633 (parent)
chain: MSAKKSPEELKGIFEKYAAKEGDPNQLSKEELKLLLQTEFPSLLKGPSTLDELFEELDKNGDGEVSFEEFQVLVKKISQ

- Variants of: B1
- assayText: abundance fitness (aPCA) (normalised: wild type 0, dead -1); higher = more abundant; growth selection in yeast, the domain comes from the species named
- experimentalParameters: Bos taurus
Enter the number alone.

In: Identify measured abundance fitness corresponding to S42M
Out: -0.07

In: Determine its reported abundance fitness: K5Y
Out: 0.025

In: Name the recorded abundance fitness of the item K45N in your answer.
Out: -0.022

In: Dear colleague, please send me the reported abundance fitness for E15C when you can.
Out: -0.152

These entries and their values trace back to the Human Domainome abundance scans (Beltran et al. 2025).
